Provenance of the data: the supplement of paper PMC8866396

# Test system: IL-6-GFP PC-9GR
# EXPERIMENT_DESCRIPTION: cell viability (CCK-8 OD) relative to DMSO control (fraction of control); higher = more viable cells
# APPLIED_CONDITIONS: compound concentration: 10 uM; treatment time: 48 h
Criterion: cell viability strictly less than 1. Met: criterion met. Not met: criterion not met.

Use these answered entries as a reference point.
| MOLECULE | LABEL_VALUE |
| --- | --- |
| OCC1OC(c2ccc(Cl)c(Cc3ccc(OC4CCOC4)cc3)c2)C(O)C(O)C1O (stereo unspecified) | criterion not met |
| COc1ccc2cc(C(C)C(=O)[O-])ccc2c1.[Na+] (stereo unspecified) [Naproxen Sodium] | criterion not met |
| O=c1ccc2cc3ccoc3cc2o1 | criterion met |
| CC1(C)OC2CC3C4CC(F)C5=CC(=O)C=CC5(C)C4(F)C(O)CC3(C)C2(C(=O)CO)O1 (stereo unspecified) [Fluocinolone Acetonide] | criterion not met |
| Cc1ccc(C(C)C)c(O)c1 | criterion met |
| O=c1[nH]c(=O)n(C2CCCO2)cc1F (stereo unspecified) | criterion not met |
| COc1ccc2c(c1)c(CC(=O)O)c(C)n2C(=O)c1ccc(Cl)cc1 | criterion met |
| CC1CC2C3CC(F)C4=CC(=O)C=CC4(C)C3(F)C(O)CC2(C)C1(O)C(=O)CO (stereo unspecified) | criterion met |

Given the entry "CC1(C)CCC(C)(C)c2cc(NC(=O)c3ccc(C(=O)O)cc3)ccc21" , would its reported cell viability be below 1? criterion not met

Given the entry CC(=O)OC(C)C(C)C(=O)OCC12C3CC4(C)C(=CCC5C6(C)CCC(OC7OC(C(=O)[O][Na])C(OC8OC(CO)C(O)C(O)C8O)C(O)C7OC7OCC(O)C(O)C7O)C(C)(CO)C6CCC54C)C1CC(C)(C)C(O3)C2O (stereo unspecified) [Sodium Aescinate] , would its reported cell viability be below 1? criterion met

Given the entry CC(=O)OCC(=O)C1(O)CCC2C3CCC4=CC(=O)CCC4(C)C3C(=O)CC21C (stereo unspecified) [Cortisone acetate] , would its reported cell viability be below 1? criterion not met

###

# Tested on: IL-6-GFP PC-9
# EXPERIMENT_DESCRIPTION: cell viability (CCK-8 OD) relative to DMSO control (fraction of control); higher = more viable cells
# APPLIED_CONDITIONS: compound concentration: 10 uM; treatment time: 48 h
What cell viability was measured for each of the following?
Give bare numbers.

Consider the following illustrative entries.
| MOLECULE | cell viability |
| --- | --- |
| C=CCC1/C=C(\C)CC(C)CC(OC)C2OC(O)(C(=O)C(=O)N3CCCCC3C(=O)OC(/C(C)=C/C3CCC(O)C(OC)C3)C(C)C(O)CC1=O)C(C)CC2OC (stereo not drawn) | 1.34 |
| N#CC1(c2ccc(NC(=O)c3cccnc3NCc3ccncc3)cc2)CCCC1 | 1.18 |
| CCOc1ccc(NC(C)=O)cc1 | 1.09 |

I need cell viability for every entry listed below, if you could help.
1. O=C([O-])c1cc(N=Nc2ccc(O)c(C(=O)[O-])c2)ccc1O.[Na+].[Na+] [Olsalazine Sodium]
2. Cl.O=C(OCC(O)CO)c1ccccc1Nc1ccnc2cc(Cl)ccc12 (stereo not drawn) [Glafenine HCl]
3. COC1CC2CCC(C)C(O)(O2)C(=O)C(=O)N2CCCCC2C(=O)OC(C(C)CC2CCC(OCCO)C(OC)C2)CC(=O)C(C)/C=C(\C)C(O)C(OC)C(=O)C(C)CC(C)/C=C/C=C/C=C/1C (stereo not drawn) [Everolimus (RAD001)]

[1.25, 1.05, 0.66]

###

# Tested on: IL-6-GFP PC-9GR
# EXPERIMENT_DESCRIPTION: cell viability (CCK-8 OD) relative to DMSO control (fraction of control); higher = more viable cells
# APPLIED_CONDITIONS: compound concentration: 10 uM; treatment time: 48 h
Criterion: cell viability strictly less than 0.7. Met: t. Not met: f.

Use these answered entries as a reference point.
| COMPOUND | LABEL_VALUE |
| --- | --- |
| CCC(=O)OC1(C(=O)SCF)C(C)CC2C3CC(F)C4=CC(=O)C=CC4(C)C3(F)C(O)CC21C (configuration not stated) [Fluticasone propionate] | f |
| COc1ccc2cc1Oc1ccc(cc1)CC1c3cc(c(OC)cc3CCN1C)Oc1c(O)c(OC)cc3c1C(C2)N(C)CC3 (single isomer, unassigned; (+)) [(+)-Fangchinoline] | f |
| COc1cc2ncnc(Nc3ccc(F)c(Cl)c3)c2cc1OCCCN1CCOCC1 [Gefitinib (ZD1839)] | f |
| CCOC(=O)c1ccc(OC(=O)CCCCCNC(=N)N)cc1.CS(=O)(=O)O [Gabexate Mesylate] | f |

Given the entry CNC(=NC#N)NCCSCc1nc[nH]c1C [Cimetidine] , would its reported cell viability be below 0.7? f

Given the entry Cc1nnc(C(=O)NC(C)(C)c2nc(C(=O)NCc3ccc(F)cc3)c([O-])c(=O)n2C)o1.[K+] [Raltegravir potassium] , would its reported cell viability be below 0.7? f

Given the entry CC(C)OC(=O)CCC/C=C\CC1C(O)CC(O)C1CCC(O)CCc1ccccc1 (configuration not stated) [Latanoprost] , would its reported cell viability be below 0.7? f

###

# System: IL-6-GFP PC-9
# EXPERIMENT_DESCRIPTION: cell viability (CCK-8 OD) relative to DMSO control (fraction of control); higher = more viable cells
# APPLIED_CONDITIONS: compound concentration: 10 uM; treatment time: 48 h
Criterion: cell viability strictly less than 1. Met: YES. Not met: NO.

| COMPOUND | LABEL_VALUE |
| --- | --- |
| COc1cc(CNC(=O)CCCC/C=C\C(C)C)ccc1O [Zucapsaicin] | NO |
| CC1=C(/C=C/C(C)=C/C=C/C(C)=C/C(=O)O)C(C)(C)CCC1 [Tretinoin] | NO |
| CC(=O)OC(C)OC(=O)C(C)c1ccc(-c2ccccc2)c(F)c1 (stereo not given) [Flurbiprofen Axetil] | NO |
| Cc1cc2ncc(C(=O)NCC(C)(C)NCC(=O)N3CCCC3C#N)cn2n1 (stereo not given) [Anagliptin] | NO |
| COC(=O)NC(C(=O)N1CCCC1c1ncc(-c2ccc3c(c2)OC(c2ccccc2)n2c-3cc3cc(-c4cnc(C5CCCN5C(=O)C(NC(=O)OC)C(C)C)[nH]4)ccc32)[nH]1)C(C)C (stereo not given) [Elbasvir] | YES |
| COc1cc2nccc(Oc3ccc(NC(=O)NC4CC4)c(Cl)c3)c2cc1C(N)=O.CS(=O)(=O)O [lenvatinib Mesylate] | YES |
| O=c1[nH]cc(F)c(=O)[nH]1 [Fluorouracil (5-Fluoracil, 5-FU)] | YES |
| Nc1nc(=S)c2[nH]cnc2[nH]1 [Thioguanine] | NO |

Given the entry CC(C(=O)O)c1ccc(C(=O)c2cccs2)cc1 (stereo not given) [Suprofen] , would its reported cell viability be below 1? NO

Given the entry CC1(C)OC2CC3C4CCC5=CC(=O)C=CC5(C)C4C(O)CC3(C)C2(C(=O)CO)O1 (stereo not given) [Desonide] , would its reported cell viability be below 1? YES

Given the entry Cc1cccc(N(C)C(=S)Oc2ccc3ccccc3c2)c1 [Tolnaftate] , would its reported cell viability be below 1? YES

Given the entry NC(CO)(CO)CO [Trometamol] , would its reported cell viability be below 1? NO

Given the entry CC1(C(=O)O)CCC2(C)CCC3(C)C(=CC(=O)C4C5(C)CCC(OC6OC(C(=O)O)C(O)C(O)C6OC6OC(C(=O)O)C(O)C(O)C6O)C(C)(C)C5CCC43C)C2C1.N.N (stereo not given) [Diammonium Glycyrrhizinate] , would its reported cell viability be below 1? NO

###

# System: IL-6-GFP PC-9GR
# EXPERIMENT_DESCRIPTION: cell viability (CCK-8 OD) relative to DMSO control (fraction of control); higher = more viable cells
# APPLIED_CONDITIONS: compound concentration: 10 uM; treatment time: 48 h
Criterion: cell viability strictly less than 0.9. Met: 1. Not met: -1.

Given the entry CN(C(=O)c1c(O)c2ccccc2n(C)c1=O)c1ccccc1 [Roquinimex] , would its reported cell viability be below 0.9? -1

Given the entry Cc1ccc(C2OC(CO)C(O)C(O)C2O)cc1Cc1ccc(-c2ccc(F)cc2)s1.Cc1ccc(C2OC(CO)C(O)C(O)C2O)cc1Cc1ccc(-c2ccc(F)cc2)s1.O (stereo not drawn) [Canagliflozin hemihydrate] , would its reported cell viability be below 0.9? -1

Given the entry COc1cc(C2Oc3cc(C4Oc5cc(O)cc(O)c5C(=O)C4O)ccc3OC2CO)ccc1O (stereo not drawn) [Silibinin] , would its reported cell viability be below 0.9? -1

Given the entry Cn1c(=O)cc(N2CCCC(N)C2)n(Cc2ccccc2C#N)c1=O (stereo not drawn) [Alogliptin] , would its reported cell viability be below 0.9? 1

Given the entry O=C(O)c1cc(-c2ccc(F)cc2F)ccc1O [Diflunisal] , would its reported cell viability be below 0.9? 1

Given the entry Nc1ccn(C2OC(CO)C(O)C2(F)F)c(=O)n1 (stereo not drawn) [Gemcitabine] , would its reported cell viability be below 0.9? 1

Given the entry Nc1cc(C(Cl)=C(Cl)Cl)c(S(N)(=O)=O)cc1S(N)(=O)=O [Clorsulon] , would its reported cell viability be below 0.9? -1
